assay: in vivo; conditions: monkey, serum, intravenous, 2 mg/kg
property-label: concentration at 2 hr (ng/mL)
Please give a number only; it is taken to be in ng/mL.

compound	concentration at 2 hr [ng/mL]
COc1cc(CC(=O)N2CC(O)C(O)C2C(=O)N2CCN(CC(=O)O)CC2)ccc1NC(=O)Nc1ccccc1C (centres unmarked)	772

Could you now consider this next compound?
// concentration at 2 hr lookup, compound = CC(C)NCC(O)COc1ccc(CC(N)=O)cc1 (centres unmarked) [ATENOLOL, reference compound] , result: 479

====

test: Pharmacokinetic evaluation in rat; type: in vivo; conditions: plasma, iv, 10 mg/kg, 10 mg/kg (i.v.), line of AUC 0–6 hr, read-out: CL (apparent plasma clearance)
property-label: clearance (mL/min/kg)
Please give a number only; it is taken to be in mL/min/kg.

compound	clearance (mL/min/kg)
Cc1cc(CC(=O)N2C[C@@H](F)C[C@H]2COc2ccc(C(=O)O)cc2)ccc1NC(=O)Nc1ccccc1Cl [Compound 79]	31.7

Could you now consider this next compound?
// clearance lookup, compound = Cc1ccccc1NC(=O)Nc1ccc(CC(=O)N2C[C@@H](F)C[C@H]2COc2ccc(C(=O)O)cc2)cc1Cl [Compound 90] , result: 5.23

====

Below, each of the compounds is paired with its reported clearance value.
assay: Pharmacokinetic evaluation in rat; type: in vivo; settings: plasma, iv, 10 mg/kg, 10 mg/kg (i.v.), line of AUC 0–∞, read-out: CL (apparent plasma clearance)
Please give a number only; it is taken to be in mL/min/kg.

chemical-structure	clearance [mL/min/kg]
Cc1cc(CC(=O)N2C[C@@H](F)C[C@H]2COc2ccc(C(=O)O)cc2)ccc1NC(=O)Nc1ccccc1Cl	30.9

Could you now consider this next compound?
// clearance lookup, compound = Cc1ccccc1NC(=O)Nc1ccc(CC(=O)N2C[C@@H](F)C[C@H]2COc2ccc(C(=O)O)cc2)cc1Cl , result: 4.98

====

assay: Pharmacokinetic evaluation in mouse; assay type: in vivo; details: plasma, po, 20 mg/kg, 20 mg/kg (p.o.), line of AUC 0–∞, read-out: MRT (mean residence time)
property-label: MRT (h)
Please give a number only; it is taken to be in h.

// MRT lookup, compound = Cc1cc(CC(=O)N2C[C@@H](F)C[C@H]2COc2ccc(C(=O)O)cc2)ccc1NC(=O)Nc1ccccc1Br , result: 6.5

====

test: Pharmacokinetic evaluation in rat; format: in vivo; settings: plasma, iv, 10 mg/kg, 10 mg/kg (i.v.), line of AUC 0–6 hr, read-out: MRT (mean residence time)
property-label: MRT
Please answer using a numeric value trailed by its unit.

chemical-structure	MRT
Cc1cc(CC(=O)N2C[C@@H](F)C[C@H]2COc2ccc(C(=O)O)cc2)ccc1NC(=O)Nc1ccccc1Cl	24 min

Could you now consider this next compound?
// MRT lookup, compound = Cc1ccccc1NC(=O)Nc1ccc(CC(=O)N2C[C@@H](F)C[C@H]2COc2ccc(C(=O)O)cc2)cc1Cl , result: 48 min

====

assay: Pharmacokinetic evaluation in mouse; type: in vivo; conditions: plasma, iv, 10 mg/kg, 10 mg/kg (i.v.), line of AUC 0–6 hr, read-out: CL (apparent plasma clearance)
Below, each of the molecules is paired with its reported clearance value.
Please give a number only; it is taken to be in mL/min/kg.

chemical-structure	clearance / mL/min/kg
Cc1ccccc1NC(=O)Nc1ccc(CC(=O)N2C[C@@H](F)C[C@H]2COc2ccc(C(=O)O)cc2)cc1Cl	18.5

Could you now consider this next molecule?
// clearance lookup, molecule = Cc1cc(CC(=O)N2C[C@@H](F)C[C@H]2COc2ccc(C(=O)O)cc2)ccc1NC(=O)Nc1ccccc1Br , result: 31.7

====

Below, each of the compounds is paired with its reported concentration at 5 min value.
test: in vivo; details: monkey, serum, intravenous, 2 mg/kg
Please give a number only; it is taken to be in ng/mL.

compound	concentration at 5 min, ng/mL
COc1cc(CC(=O)N2CC(O)C(O)C2C(=O)N2CCN(CC(=O)O)CC2)ccc1NC(=O)Nc1ccccc1C (centres unmarked)	65400

Could you now consider this next compound?
// concentration at 5 min lookup, compound = CC(C)NCC(O)COc1ccc(CC(N)=O)cc1 (centres unmarked) [ATENOLOL, reference compound] , result: 4060

====

Counter-ions that a name gives are not always drawn.
property-label: melting point

Guide cases for melting point, answers given:
compound	reported-value
COc1cc(CC(=O)N(C)CCOc2ccc(C(=O)O)cc2C(=O)O)ccc1NC(=O)Nc1ccccc1C (as salt: salt)	139 to 141 °C
COc1cc(CC(=O)N2C[C@@H](Oc3ccc(C(=O)O)cc3)C[C@H]2COc2ccc(C(=O)O)cc2)ccc1NC(=O)Nc1ccccc1C	154 to 159 °C
COc1cc(CC(=O)N2CCCC2C#Cc2ccc(C(=O)O)cc2)ccc1NC(=O)Nc1ccccc1F (stereo not shown)	152 to 155 °C (dec.)
Cc1ccccc1NC(=O)Nc1ccc(CC(=O)N[C@@H](C)COc2ccc(C(=O)O)cc2)cc1	262 to 265 °C
COc1cc(CC(=O)N2C[C@H](O)C[C@H]2COc2ccc(C(=O)O)cc2)ccc1NC(=O)Nc1ccccc1Cl	137 to 142 °C

// melting point lookup, compound = COc1cc(CC(=O)N(C)CCOc2ccc(C(=O)O)cc2NC(C)C)ccc1NC(=O)Nc1ccccc1F , result: 195 to 200 °C

// melting point lookup, compound = COc1cc(CC(=O)N2C[C@@H](Cl)C[C@H]2COc2ccc(C(=O)O)cc2)ccc1NC(=O)Nc1ccccc1Br , result: 127 to 132 °C

====

assay: Pharmacokinetic evaluation in mouse; format: in vivo; settings: plasma, po, 20 mg/kg, 20 mg/kg (p.o.), line of AUC 0–6 hr, read-out: MRT (mean residence time)
property-label: MRT (h)
Please give a number only; it is taken to be in h.

// MRT lookup, compound = Cc1cc(CC(=O)N2C[C@@H](F)C[C@H]2COc2ccc(C(=O)O)cc2)ccc1NC(=O)Nc1ccccc1Br , result: 2.3

====

Below, each of the compounds is paired with its reported melting point value.

Guide cases for melting point, answers given:
compound	reported-value
COc1cc(CC(=O)N(C)CCOc2ccc(C(=O)O)cc2N)ccc1NC(=O)Nc1ccccc1F	125 to 130 °C
COc1cc(CC(=O)N2CSC[C@H]2COc2ccc(C(=O)O)cc2)ccc1NC(=O)Nc1ccccc1Br (stereo in doubt)	125 to 133 °C
COc1cc(CC(=O)N(C)CCOc2ccc(C(=O)O)cc2N(C)C)ccc1NC(=O)Nc1ccccc1F	120 to 125 °C

Could you now consider this next compound?
// melting point lookup, compound = COc1cc(CC(=O)N[C@@H](C)COc2ccc(C(=O)O)cc2Cl)ccc1NC(=O)Nc1ccccc1C , result: 198 to 201 °C

====

Below, each of the molecules is paired with its reported melting point value.
Where a name gives a salt, the structure may show the parent alone.

Guide cases for melting point, answers given:
molecule	melting point
COc1cc(CC(=O)N2CCC[C@H]2CS(=O)(=O)c2cccc(C(=O)O)c2)ccc1NC(=O)Nc1ccccc1C (stereo in doubt) (as salt: salt)	243 to 245 °C
COc1cc(CC(=O)N2CCC[C@H]2C(=O)NC2CCC(C(=O)O)CC2)ccc1NC(=O)Nc1ccccc1C (stereo in doubt)	136 to 142 °C
COc1cc(CC(=O)NCCOc2ccc(C(=O)O)cc2[N+](=O)[O-])ccc1NC(=O)Nc1ccccc1C	112 to 115 °C
COc1cc(CC(=O)N2C[C@@H](NS(=O)(=O)c3c(C)cc(C)cc3C)C[C@H]2COc2ccc(C(=O)O)cc2)ccc1NC(=O)Nc1ccccc1Br	130 to 132 °C
COc1cc(CC(=O)N2C[C@H](O)C[C@H]2COc2ccc(C(=O)O)cc2)ccc1NC(=O)Nc1ccccc1C	178 to 182 °C

// melting point lookup, molecule = COc1cc(CC(=O)N2CC[C@@H](Oc3ccc(C(=O)O)cc3)C2)ccc1NC(=O)Nc1ccccc1Br , result: 175 to 177 °C

// melting point lookup, molecule = COc1cc(CC(=O)N(C)[C@@H](C)COc2ccc(C(=O)O)cc2Cl)ccc1NC(=O)Nc1ccccc1C , result: 125 to 130 °C

// melting point lookup, molecule = COc1cc(CC(=O)N2CC[C@H](Oc3ccc(C(=O)O)cc3)C2)ccc1NC(=O)Nc1ccccc1Br , result: 173 to 175 °C

// melting point lookup, molecule = COc1cc(CC(=O)N(C)CCNc2ccc(C(=O)O)cc2)ccc1NC(=O)Nc1ccccc1C , result: 115 to 120 °C

// melting point lookup, molecule = COc1cc(CC(=O)N[C@@H](C)COc2ccc(C(=O)O)cc2Cl)ccc1NC(=O)Nc1ccccc1F , result: 188 to 191 °C

// melting point lookup, molecule = COc1cc(CC(=O)N2CCC[C@H]2C(=O)NC2CCC(C(=O)O)CC2)ccc1NC(=O)Nc1ccccc1Cl (stereo in doubt) , result: 135 to 140 °C

// melting point lookup, molecule = COc1cc(CC(=O)N2CC[C@@H](Oc3ccc(C(=O)O)cc3)C2)ccc1NC(=O)Nc1ccccc1C , result: 158 to 162 °C

// melting point lookup, molecule = COc1cc(CC(=O)N2C3CCCCC3C[C@H]2COc2ccc(C(=O)O)cc2)ccc1NC(=O)Nc1ccccc1Br (some centres unmarked) , result: 118 to 123 °C

// melting point lookup, molecule = COc1cc(CC(=O)N2CCC[C@H]2COc2ccc(C(=O)O)cc2OC)ccc1NC(=O)Nc1ccccc1F (stereo in doubt) , result: 140 to 144 °C
